Assay: NCI Yeast Anticancer Drug Screen. Data for the mlh1 rad18 strain (AID 175)
Conditions: S. cerevisiae mlh1 rad18 strain growth inhibition; at 5.0 µM (retest, dose inferred, filed as 0.5)
The panel holds about 79,000 compounds, 15% with a hit somewhere; the sample as a whole holds those more often. The source made the active and inactive calls. Cut-off read from the data, not from the text of the source: active = growth inhibition above about 70%; inactive = the rest.
I would appreciate it if you answered using one of these outcomes: 1.0 for active, 0.0 for inactive

• CN(C)c1ccc(N=Nc2ccncc2)cc1 = 0.0

INPUT: Status in this test for O=C1CC(=O)c2ccccc21 ?
OUTPUT: 0.0

----------
Assay: NCI Yeast Anticancer Drug Screen. Data for the mlh1 strain (AID 171);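 note: 0% = growth of vehicle-treated control cultures of the same strain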
Settings: S. cerevisiae mlh1 strain growth inhibition; at 3.7 µM; active compounds read high
The panel holds about 79,000 compounds, 15% with a hit somewhere; the sample as a whole holds those more often.
Hi there, I'd appreciate the recorded growth inhibition for every entry that follows.
One number for each entry, in %.

Here's what some known entries look like.
- O=C1c2ccccc2C(=O)N1CCCC(=O)n1cc(F)c(=O)[nH]c1=O: -18
- CCc1c(Cl)c(C)cc(O)c1Cl: -7
- COC1=C(OC)C(=O)C(Sc2ccc3ccccc3c2)=CC1=O: -38

State the recorded growth inhibition for every item in the following list.
1. O=C(/C=C\c1cccc(C(F)(F)F)c1)c1ccccc1
2. Cc1c2cccc(Sc3ccccc3)c2c2c3c(cccc13)[S+](c1ccccc1)C2 (stereo unspecified)
3. Cc1cc(S(=O)(=O)Nc2nnc3cnc4ccccc4n23)c(S)cc1Cl
4. S=C1SCN(C2CCCCC2)CN1C1CCCCC1
5. CCCCC/C(=C(\C#N)C(=O)OCC)c1ccccc1

OUTPUT:
[-2, 22, -4, -43, 1]

State the recorded growth inhibition for every item in the following list.
1. O=[N+]([O-])c1cc[n+]([O-])cc1
2. CC(C)(CCCCC(C)(C)[N+](C)(C)C)[N+](C)(C)C
3. Cc1cc(C)nc(NS(=O)(=O)c2ccc(Nc3c4ccccc4nc4c(C(=O)NCCO)cccc34)cc2)n1

OUTPUT:
1. -6
2. 1
3. -2
